FYI, the data here is from patent US6495699B2.

biological target: human collagenase-3 (Coll3) (Homo sapiens, UniProt P45452)
pKi: −log10 of the molar value.
// label = Satisfied if pKi is not less than 8, otherwise Not satisfied

Decide: is the reported value of pKi for CC(C)(C)[C@@H](CO)NC(=O)[C@@H](CC(=O)O)n1ccc(-c2ccc(-c3ccncc3)cc2)c1 [Example 5(a)] equal to or greater than 8?
Satisfied

Decide: is the reported value of pKi for N#Cc1ccc(-c2ccc(-c3ccn([C@H](CC(=O)O)C(=O)N[C@H](CO)Cc4ccccc4)c3)cc2)cc1 [Example 4(a)] equal to or greater than 8?
Satisfied

Decide: is the reported value of pKi for CC(C)(C)[C@H](NC(=O)[C@@H](CC(=O)O)n1ccc(-c2ccc(-c3ccc(C(N)=O)cc3)cc2)c1)C(=O)Nc1ccncc1 [Example 5(f)] equal to or greater than 8?
Satisfied

Decide: is the reported value of pKi for O=C(O)C[C@H](C(=O)N[C@@H]1CCCC[C@H]1O)n1ccc(-c2ccc(-c3ccccc3)cc2)c1 [Example 1(h)] equal to or greater than 8?
Not satisfied

Decide: is the reported value of pKi for CC(C)(C)[C@@H](CO)NC(=O)[C@@H]([C@H](CCCO)C(=O)O)n1ccc(-c2ccc(-c3ccccc3)cc2)c1 [Example 11] equal to or greater than 8?
Not satisfied

Decide: is the reported value of pKi for CNC(=O)[C@@H](NC(=O)[C@@H](CC(=O)O)n1ccc(-c2ccc(-c3ccncc3)cc2)c1)C(C)(C)C [Example 6(b)] equal to or greater than 8?
Satisfied

Decide: is the reported value of pKi for COC[C@H](Cc1ccccc1)NC(=O)[C@@H](CC(=O)O)n1ccc(-c2ccc(-c3ccccc3)cc2)c1 [Example 1(f)] equal to or greater than 8?
Not satisfied

Decide: is the reported value of pKi for NC(=O)c1ccc(-c2ccc(-c3ccn([C@H](CC(=O)O)C(=O)N[C@H](CO)Cc4ccccc4)c3)cc2)cc1 [Example 4(b)] equal to or greater than 8?
Satisfied

Decide: is the reported value of pKi for O=C(O)C[C@H](C(=O)N[C@H](CO)Cc1ccccc1)c1ccc(-c2ccc(-c3ccccc3)cc2)o1 [Example 15(a)] equal to or greater than 8?
Not satisfied

Decide: is the reported value of pKi for CNC(=O)[C@@H](NC(=O)[C@@H](CC(=O)O)n1ccc(-c2ccc(-c3ccccc3)cc2)c1)C(C)(C)C [Example 1(e)] equal to or greater than 8?
Satisfied

Decide: is the reported value of pKi for O=C(O)C[C@H](C(=O)N[C@H](CO)Cc1ccccc1)n1ccc(-c2ccc(-c3ccccc3)cc2)c1 [1(a)] equal to or greater than 8?
Not satisfied

Decide: is the reported value of pKi for CCOC(=O)c1ccc(NC(=O)[C@H](CC(C)C)NC(=O)[C@@H](CC(=O)O)n2cccc2)cc1 [Example 1(n)] equal to or greater than 8?
Not satisfied
